# Tested on: phospholipase A2 (PLA2) contained in the supernatant fraction of rabbit heart
# Protocol Text: Inhibitory activity against phospholipase A2 (PLA2) contained in the supernatant fraction of rabbit heart
# Type: biochemical
# Measurement Setup: EGTA added, 37° C., 5 minutes
Endpoint Label: PLA2 -inhibitory activity IC30, supernatant fraction

Answer for every listed entry: what is its PLA2 -inhibitory activity IC30, supernatant fraction? The entries follow.
1. CN(C(=O)/C=C/c1ccc(S(C)(=O)=O)cc1)c1ccc(S(=O)(=O)NC2CCCCCC2)cc1
2. CN(C(=O)/C=C/C=C/c1cc(Br)c(O)c(Br)c1)c1ccc(S(=O)(=O)NC2CCCCCC2)cc1

1: > 30 µM; 2: 39 µM

Answer for every listed entry: what is its PLA2 -inhibitory activity IC30, supernatant fraction? The entries follow.
1. NS(=O)(=O)c1ccc(NC(=O)/C=C/c2ccc(O)c(O)c2)cc1
2. COc1ccc(CCN2CCC(NS(=O)(=O)c3ccc(N(C)C(=O)/C=C/c4ccc(S(C)(=O)=O)cc4)cc3)CC2)cc1OC
3. CN(C(=O)/C=C/c1ccc(O)c(F)c1)c1ccc(S(=O)(=O)NC2CCCCCC2)cc1
4. CN(C(=O)/C=C/c1ccc(S(C)(=O)=O)cc1)c1ccc(S(=O)(=O)NC2CCN(Cc3ccccc3)CC2)cc1
5. CN(C(=O)/C=C/c1ccc(S(C)(=O)=O)cc1)c1ccc(S(=O)(=O)NC2CCCCN(Cc3ccccn3)C2)cc1 (racemic)

1: > 100 µM; 2: > 100 µM; 3: 62 µM; 4: > 100 µM; 5: > 100 µM

###

# Tested on: phospholipase A2 (PLA2) contained in the membrane fraction of rabbit heart
# Protocol Text: Inhibitory activity against phospholipase A2 (PLA2) contained in the membrane fraction of rabbit heart
# Type: biochemical
# Measurement Setup: CaCl2 added, 37° C., 30 minutes
Endpoint Label: PLA2 -inhibitory activity IC30, membrane fraction (nM)
Answers are plain numbers, in nM.

Print phospholipase A2 (PLA2) contained in the membrane fraction of rabbit heart PLA2 -inhibitory activity IC30, membrane fraction for `CN(C(=O)/C=C/c1ccc(S(C)(=O)=O)cc1)c1ccc(S(=O)(=O)NC2CCN(CCc3ccccc3)CC2)cc1` .
7

Print phospholipase A2 (PLA2) contained in the membrane fraction of rabbit heart PLA2 -inhibitory activity IC30, membrane fraction for `CN(C(=O)/C=C/c1ccc(OC(=O)CN)c(OC(=O)CN)c1)c1ccc(S(=O)(=O)NC2Cc3ccccc3C2)cc1` .
2400

Print phospholipase A2 (PLA2) contained in the membrane fraction of rabbit heart PLA2 -inhibitory activity IC30, membrane fraction for `CN(C(=O)/C=C/c1ccc(S(C)(=O)=O)cc1)c1ccc(S(=O)(=O)NCCc2ccccn2)cc1` .
180

Please examine the following record next.
Print phospholipase A2 (PLA2) contained in the membrane fraction of rabbit heart PLA2 -inhibitory activity IC30, membrane fraction for `CN(C(=O)/C=C/c1ccc(O)cc1)c1ccc(S(=O)(=O)NC2Cc3ccccc3C2)cc1` .
980

###

# System: phospholipase A2 (PLA2) contained in the supernatant fraction of rabbit heart
# Protocol Text: Inhibitory activity against phospholipase A2 (PLA2) contained in the supernatant fraction of rabbit heart
# Assay type: biochemical
# Measurement Setup: EGTA added, 37° C., 5 minutes
Please respond with reported PLA2 -inhibitory activity IC30, supernatant fraction for every item in the list.
Numbers only, in µM.

// fetch PLA2 -inhibitory activity IC30, supernatant fraction given entry `CN(C(=O)/C=C/c1ccc(S(C)(=O)=O)cc1)c1ccc(S(=O)(=O)NC2CCN(CCc3ccccc3)CC2)cc1`
49

// fetch PLA2 -inhibitory activity IC30, supernatant fraction given entry CN(C(=O)/C=C/c1ccc(-n2ccnc2)cc1)c1ccc(S(=O)(=O)N[C@@H]2C[C@H]3CC[C@@H]2C3)cc1 (relative stereo)
29

More entries:
// fetch PLA2 -inhibitory activity IC30, supernatant fraction given entry `CN(C(=O)/C=C/c1ccc([N+](=O)[O-])cc1)c1ccc(S(=O)(=O)NC2CCCCCC2)cc1`
29

###

# Tested on: phospholipase A2 (PLA2) contained in the membrane fraction of rabbit heart
# Protocol Text: Inhibitory activity against phospholipase A2 (PLA2) contained in the membrane fraction of rabbit heart
# Assay type: biochemical
# Measurement Setup: CaCl2 added, 37° C., 30 minutes
Please respond with reported PLA2 -inhibitory activity IC30, membrane fraction for every item in the list.
Give bare numbers, in µM.

Would you please look over these solved cases?
// fetch PLA2 -inhibitory activity IC30, membrane fraction given entry `CN(C(=O)/C=C/c1ccc(O)c(O)c1)c1ccc(S(=O)(=O)NC2CCCCC2)cc1`
1.5

// fetch PLA2 -inhibitory activity IC30, membrane fraction given entry `CN(C(=O)/C=C/C=C/c1cc(Br)c(O)c(Br)c1)c1ccc(S(=O)(=O)NC2CCCCCC2)cc1`
5.1

// fetch PLA2 -inhibitory activity IC30, membrane fraction given entry `CN(C(=O)/C=C/c1ccc(-n2ccnc2)cc1)c1ccc(S(=O)(=O)NC2CCCCCCC2)cc1`
0.66

// fetch PLA2 -inhibitory activity IC30, membrane fraction given entry `CN(C(=O)/C=C/c1ccc(C#N)cc1)c1ccc(S(=O)(=O)NC2CCCCCC2)cc1`
0.16

// fetch PLA2 -inhibitory activity IC30, membrane fraction given entry `CN(C(=O)/C=C/c1ccc(O)c(F)c1)c1ccc(S(=O)(=O)NC2CCCCCC2)cc1`
3.49

// fetch PLA2 -inhibitory activity IC30, membrane fraction given entry CN(C(=O)/C=C/c1ccc(S(C)(=O)=O)cc1)c1ccc(S(=O)(=O)NC2CCCCN(Cc3ccccn3)C2)cc1 (racemic)
0.029

Please examine the following record next.
// fetch PLA2 -inhibitory activity IC30, membrane fraction given entry `CN(C(=O)/C=C/c1ccc(S(C)(=O)=O)cc1)c1ccc(S(=O)(=O)N2CCN(CCc3ccccc3)CC2)cc1`
0.050

###

Please respond with reported PLA2 -inhibitory activity IC30, supernatant fraction for every item in the list.
# Test system: phospholipase A2 (PLA2) contained in the supernatant fraction of rabbit heart
# Protocol Text: Inhibitory activity against phospholipase A2 (PLA2) contained in the supernatant fraction of rabbit heart
# Assay type: biochemical
# Measurement Setup: EGTA added, 37° C., 5 minutes
One number for each entry, in µM.

// fetch PLA2 -inhibitory activity IC30, supernatant fraction given entry `Cc1cccc(CCNS(=O)(=O)c2ccc(N(C)C(=O)/C=C/c3ccc(S(C)(=O)=O)cc3)cc2)n1`
61

Please examine the following record next.
// fetch PLA2 -inhibitory activity IC30, supernatant fraction given entry `CN(C(=O)/C=C/c1ccc(O)c(O)c1)c1ccc(S(=O)(=O)NC2CCCCC2)cc1`
64

###

# Test system: phospholipase A2 (PLA2) contained in the membrane fraction of rabbit heart
# Protocol Text: Inhibitory activity against phospholipase A2 (PLA2) contained in the membrane fraction of rabbit heart
# Type: biochemical
# Measurement Setup: CaCl2 added, 37° C., 30 minutes
Please respond with reported PLA2 -inhibitory activity IC30, membrane fraction for every item in the list.
One number for each entry, in nM.

Would you please look over these solved cases?
// fetch PLA2 -inhibitory activity IC30, membrane fraction given entry `CN(C(=O)/C=C/c1ccc(O)c(F)c1)c1ccc(S(=O)(=O)NC2CCCCCCC2)cc1`
2100

// fetch PLA2 -inhibitory activity IC30, membrane fraction given entry `CN(C(=O)/C=C/c1ccc(O)c(O)c1)c1ccc(S(=O)(=O)NC2CCCCCC2)cc1`
1800

// fetch PLA2 -inhibitory activity IC30, membrane fraction given entry `CN(C(=O)/C=C/c1ccc(O)c(O)c1)c1ccc(S(N)(=O)=O)cc1`
16000

// fetch PLA2 -inhibitory activity IC30, membrane fraction given entry `Cc1cccc(CCN(C)S(=O)(=O)c2ccc(N(C)C(=O)/C=C/c3ccc(S(C)(=O)=O)cc3)cc2)n1`
56

// fetch PLA2 -inhibitory activity IC30, membrane fraction given entry `CN(C(=O)/C=C/c1ccc(S(C)(=O)=O)cc1)c1ccc(S(=O)(=O)N2CCCN(CC3CCCCC3)CC2)cc1`
45

// fetch PLA2 -inhibitory activity IC30, membrane fraction given entry `CN(C(=O)/C=C/c1ccc([N+](=O)[O-])cc1)c1ccc(S(=O)(=O)NC2CCCCCC2)cc1`
120

Answer for every listed entry: what is its PLA2 -inhibitory activity IC30, membrane fraction? The entries follow.
1. CN(C(=O)/C=C/c1ccc(S(C)(=O)=O)cc1)c1ccc(S(=O)(=O)NC2CCCCN(Cc3ccccc3)C2)cc1 (racemic)
2. NS(=O)(=O)c1ccc(NC(=O)/C=C/c2ccc(O)c(O)c2)cc1
3. CN(C(=O)/C=C/c1ccc(S(C)(=O)=O)cc1)c1ccc(S(=O)(=O)NC2CCN(Cc3ccccc3)CC2)cc1
4. Cc1cccc(CCNS(=O)(=O)c2ccc(N(C)C(=O)/C=C/c3ccc(S(C)(=O)=O)cc3)cc2)n1
5. Cc1cccc(CCN2CCC(NS(=O)(=O)c3ccc(N(C)C(=O)/C=C/c4ccc(S(C)(=O)=O)cc4)cc3)CC2)n1

[15, 20000, 32, 81, 44]

Answer for every listed entry: what is its PLA2 -inhibitory activity IC30, membrane fraction? The entries follow.
1. CN(C(=O)/C=C/C=C/c1ccc(O)c(O)c1)c1ccc(S(=O)(=O)NC2CCCCCC2)cc1
2. CN(C(=O)/C=C/c1ccc(C#N)cc1)c1ccc(S(=O)(=O)NC2CCN(Cc3ccccc3)CC2)cc1

[1050, 240]

Answer for every listed entry: what is its PLA2 -inhibitory activity IC30, membrane fraction? The entries follow.
1. CN(C(=O)/C=C/c1ccc(S(C)(=O)=O)cc1)c1ccc(S(=O)(=O)N2CCCN(Cc3ccccc3)CC2)cc1
2. CN(C(=O)/C=C/c1ccc(-n2ccnc2)cc1)c1ccc(S(=O)(=O)N[C@@H]2C[C@H]3CC[C@@H]2C3)cc1 (relative stereo)

[55, 420]
